biological target: ScBbc1; assay: SPOT peptide array binding signal intensity (averaged, normalized) (arbitrary units (background-subtracted, floor 0; scale differs between SH3 domains)); higher = stronger binding of the SH3 domain to the peptide
ATTRIBUTE_MEASURED: SPOT peptide array binding signal intensity
Answers are plain numbers.

{"columns": ["BINDER", "REPORTED"],
 "data": [
  ["TKRKRPARLIFYDSK", 22],
  ["QLLNPNRRAPRRPLS", 271],
  ["QGYPRQPQRPQRYHP", 40.2],
  ["FPGKKSPRLPHRNKK", 15.5]
]}

State recorded SPOT peptide array binding signal intensity for all listed binders.
1. NLKKRPPTAPQRKIS
2. PLQSKIPMLPSRRTM
3. KRRAPPPVPKKPSSR
4. NRLRKRLNLPSEISI
5. RTRRRPPPPPIPSTQ
6. RSLRKRPTSPSISGS
7. NIKVLLNPKLGKPVK
8. YHSRRHPLALGFKYV

[56.8, 246, 669, 2.5, 511, 94, 0.25, 2.75]

State recorded SPOT peptide array binding signal intensity for all listed binders.
1. LTRRFPFLFPFDTRM
2. SKAKRPKFLLDLQIK

[0.5, 3.5]
